Give self-splicing fitness (ln) for every item shown.
assay: self-splicing fitness, log relative to wild type (ln ratio); higher = more splicing; Tetrahymena group I intron in knt gene, E. coli kanamycin selection, DiMSum; sequences stand for … in CUCUCU…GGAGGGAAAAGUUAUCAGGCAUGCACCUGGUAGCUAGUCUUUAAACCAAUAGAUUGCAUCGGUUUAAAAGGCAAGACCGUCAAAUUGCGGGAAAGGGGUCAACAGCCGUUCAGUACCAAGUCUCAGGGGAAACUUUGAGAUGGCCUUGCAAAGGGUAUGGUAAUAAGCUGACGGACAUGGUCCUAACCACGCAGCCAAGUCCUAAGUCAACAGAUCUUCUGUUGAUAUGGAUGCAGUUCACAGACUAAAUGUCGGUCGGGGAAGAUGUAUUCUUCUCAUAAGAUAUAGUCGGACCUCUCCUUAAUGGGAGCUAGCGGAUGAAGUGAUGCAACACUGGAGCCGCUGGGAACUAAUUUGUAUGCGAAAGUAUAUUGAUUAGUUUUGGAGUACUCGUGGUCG; conditions: 30 °C;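 also: selection with 25 µg/mL kanamycin versus none on LB agar overnight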
Respond using a number only.

-- ask What value of self-splicing fitness (ln) has been recorded for this entry: "UGCUAGCAAUAUUACGACAG"
-- reply -0.698

-- ask Let us now turn to "AUCAAGCAAUAUUACGAUCA"
-- reply -1.14

-- ask Let us now turn to "UGACAGCAAUAUUACGUUGU"
-- reply -3.48

-- ask Let us now turn to "AGGAAGCAAUAUUACGGGUA"
-- reply -2

-- ask Let us now turn to "ACGUAGCAAUAUUACGUAUG"
-- reply -2.75

-- ask Let us now turn to "ACCAAGCAAUAUUACGUUUA"
-- reply -2.41

-- ask Let us now turn to "CAACAGCAAUAUUACGGACC"
-- reply -2.98

-- ask Let us now turn to "UCACAGCAAUAUUACGGGGG"
-- reply -2.39

-- ask Let us now turn to "CAUGAGCAAUAUUACGGGCU"
-- reply -3.53

-- ask Let us now turn to "GCUUAGCAAUAUUACGUCGG"
-- reply -1.89

-- ask Let us now turn to "UGACAGCAAUAUUACGGGGA"
-- reply -1.25

-- ask Let us now turn to "AUAGAGCAAUAUUACGGGAU"
-- reply -1.54

-- ask Let us now turn to "CCUGAGCAAUAUUACGAGCA"
-- reply -3.49

-- ask Let us now turn to "UAUAAGCAAUAUUACGGGUA"
-- reply -0.177

-- ask Let us now turn to "GCACAGCAAUAUUACGCGGA"
-- reply -1.51

-- ask Let us now turn to "UGCUAGCAAUAUUACGCGAC"
-- reply -2.66

-- ask Let us now turn to "UACGAGCAAUAUUACGCCGC"
-- reply -2.03

-- ask Let us now turn to "GCUCAGCAAUAUUACGGCUG"
-- reply -2.99

###

experiment: self-splicing fitness, log relative to wild type (ln ratio); higher = more splicing; Tetrahymena group I intron in knt gene, E. coli kanamycin selection, DiMSum; sequences stand for … in CUCUCU…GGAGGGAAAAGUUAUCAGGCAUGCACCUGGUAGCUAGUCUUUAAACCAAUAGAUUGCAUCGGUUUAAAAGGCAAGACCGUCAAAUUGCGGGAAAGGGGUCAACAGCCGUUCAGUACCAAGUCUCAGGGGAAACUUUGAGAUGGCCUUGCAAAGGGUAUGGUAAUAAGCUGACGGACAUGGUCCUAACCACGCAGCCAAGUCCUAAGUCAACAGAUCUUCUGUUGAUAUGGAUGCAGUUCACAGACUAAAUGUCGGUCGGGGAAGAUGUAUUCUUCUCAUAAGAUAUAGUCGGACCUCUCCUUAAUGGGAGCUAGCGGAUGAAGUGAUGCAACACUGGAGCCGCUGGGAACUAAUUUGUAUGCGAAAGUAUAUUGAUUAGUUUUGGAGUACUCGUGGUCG; details: 37 °C
Give self-splicing fitness (ln) for every item shown.
Respond using a number only.

-- ask What value of self-splicing fitness (ln) has been recorded for this entry: "CUAAAGCAAUAUUACGGAUU"
-- reply -2.62

-- ask Let us now turn to "AAGAAGCAAUAUUACGCGCG"
-- reply -0.0457

-- ask Let us now turn to "AAGUAGCAAUAUUACGGUCU"
-- reply -0.0526

-- ask Let us now turn to "ACCGAGCAAUAUUACGCUCU"
-- reply -1.25

-- ask Let us now turn to "AGUAAGCAAUAUUACGCCGG"
-- reply -1.99

-- ask Let us now turn to "AGCAAGCAAUAUUACGCGAA"
-- reply -0.85

-- ask Let us now turn to "GCAAAGCAAUAUUACGCCAA"
-- reply -2.95

-- ask Let us now turn to "CGACAGCAAUAUUACGUCCA"
-- reply -0.321

-- ask Let us now turn to "AGCUAGCAAUAUUACGUAGU"
-- reply -2.85

-- ask Let us now turn to "AAAAAGCAAUAUUACGGGAC"
-- reply -0.477

-- ask Let us now turn to "UGACAGCAAUAUUACGACGG"
-- reply -0.251

###

assay: self-splicing fitness, log relative to wild type (ln ratio); higher = more splicing; Tetrahymena group I intron in knt gene, E. coli kanamycin selection, DiMSum; sequences stand for … in CUCUCU…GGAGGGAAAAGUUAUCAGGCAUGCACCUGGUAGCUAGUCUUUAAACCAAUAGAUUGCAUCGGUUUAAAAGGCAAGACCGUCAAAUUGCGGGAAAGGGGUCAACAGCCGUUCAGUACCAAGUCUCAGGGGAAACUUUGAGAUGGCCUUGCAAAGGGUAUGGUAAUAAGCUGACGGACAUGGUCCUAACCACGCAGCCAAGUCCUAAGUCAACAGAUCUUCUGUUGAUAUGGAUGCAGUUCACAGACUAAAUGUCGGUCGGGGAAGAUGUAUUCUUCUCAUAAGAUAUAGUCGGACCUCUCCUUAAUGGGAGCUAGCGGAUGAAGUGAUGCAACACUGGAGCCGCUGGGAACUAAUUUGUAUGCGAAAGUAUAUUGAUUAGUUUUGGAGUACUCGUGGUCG; details: 30 °C
Give self-splicing fitness (ln) for every item shown.
Respond using a number only.

-- ask What value of self-splicing fitness (ln) has been recorded for this entry: "UGCUAGCAAUAUUACGCGAA"
-- reply -2.97

-- ask Let us now turn to "CUCAAGCAAUAUUACGUUCC"
-- reply -3.08

-- ask Let us now turn to "GACUAGCAAUAUUACGGGCA"
-- reply -0.911

-- ask Let us now turn to "AACAAGCAAUAUUACGAGUG"
-- reply -0.911

-- ask Let us now turn to "CCCCAGCAAUAUUACGUAGA"
-- reply -2.95

-- ask Let us now turn to "CCGUAGCAAUAUUACGCCUU"
-- reply -3.08

-- ask Let us now turn to "UCUUAGCAAUAUUACGGCGG"
-- reply -0.64

-- ask Let us now turn to "AUUUAGCAAUAUUACGCUGU"
-- reply -1.33

-- ask Let us now turn to "CUGGAGCAAUAUUACGAUUU"
-- reply -4.07

-- ask Let us now turn to "GAGCAGCAAUAUUACGGGGG"
-- reply -3.36

-- ask Let us now turn to "UGAGAGCAAUAUUACGUCAA"
-- reply -3.55

-- ask Let us now turn to "CCUUAGCAAUAUUACGACCC"
-- reply -2.95

-- ask Let us now turn to "ACGUAGCAAUAUUACGAGAA"
-- reply -2.37

-- ask Let us now turn to "GGACAGCAAUAUUACGCAUC"
-- reply -3

-- ask Let us now turn to "CACCAGCAAUAUUACGUCGG"
-- reply -1.36

-- ask Let us now turn to "CUUUAGCAAUAUUACGGCAA"
-- reply -2.06

-- ask Let us now turn to "CCAGAGCAAUAUUACGAGCG"
-- reply -0.698

###

experiment: self-splicing fitness, log relative to wild type (ln ratio); higher = more splicing; Tetrahymena group I intron in knt gene, E. coli kanamycin selection, DiMSum; sequences stand for … in CUCUCU…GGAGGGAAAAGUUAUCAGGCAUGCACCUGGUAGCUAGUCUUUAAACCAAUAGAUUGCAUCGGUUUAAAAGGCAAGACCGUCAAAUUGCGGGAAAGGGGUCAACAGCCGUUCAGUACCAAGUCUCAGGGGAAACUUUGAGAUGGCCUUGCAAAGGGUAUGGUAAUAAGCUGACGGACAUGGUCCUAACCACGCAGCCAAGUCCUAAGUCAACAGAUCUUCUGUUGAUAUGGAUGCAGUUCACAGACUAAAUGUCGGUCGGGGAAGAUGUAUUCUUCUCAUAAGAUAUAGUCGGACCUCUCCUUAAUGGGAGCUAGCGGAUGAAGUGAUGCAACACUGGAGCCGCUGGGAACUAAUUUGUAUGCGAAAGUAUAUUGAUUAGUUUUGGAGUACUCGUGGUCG; conditions: 30 °C
# self-splicing fitness (ln) >= -3 gives Y, anything below gives N

-- ask Decide: is the reported value of self-splicing fitness (ln) for "AGCCAGCAAUAUUACGCCAG" equal to or greater than -3?
-- reply N

-- ask Let us now turn to "ACGCAGCAAUAUUACGUGAC"
-- reply N

-- ask Let us now turn to "UUACAGCAAUAUUACGUCCC"
-- reply N

-- ask Let us now turn to "GUUUAGCAAUAUUACGCUCA"
-- reply Y

-- ask Let us now turn to "CGUCAGCAAUAUUACGAGUA"
-- reply Y

-- ask Let us now turn to "UAGUAGCAAUAUUACGCCCA"
-- reply Y

-- ask Let us now turn to "AUCAAGCAAUAUUACGUAGA"
-- reply Y

-- ask Let us now turn to "GCAUAGCAAUAUUACGUCAC"
-- reply N

-- ask Let us now turn to "ACCAAGCAAUAUUACGCAAG"
-- reply Y

-- ask Let us now turn to "CGCCAGCAAUAUUACGAUGC"
-- reply N

-- ask Let us now turn to "GCGCAGCAAUAUUACGUAUG"
-- reply N

-- ask Let us now turn to "UUAUAGCAAUAUUACGAUGU"
-- reply Y

-- ask Let us now turn to "CCAGAGCAAUAUUACGUGUA"
-- reply N

-- ask Let us now turn to "ACCUAGCAAUAUUACGACAG"
-- reply Y

-- ask Let us now turn to "UGGAAGCAAUAUUACGCGUG"
-- reply Y

-- ask Let us now turn to "AGGAAGCAAUAUUACGCAUG"
-- reply N

-- ask Let us now turn to "GAUAAGCAAUAUUACGGGCC"
-- reply Y

-- ask Let us now turn to "UUUUAGCAAUAUUACGGGAG"
-- reply Y

-- ask Let us now turn to "UGUAAGCAAUAUUACGGCCA"
-- reply Y

-- ask Let us now turn to "CAUGAGCAAUAUUACGAAUU"
-- reply N

-- ask Let us now turn to "UGUCAGCAAUAUUACGUAGC"
-- reply N

-- ask Let us now turn to "UAGAAGCAAUAUUACGUAAG"
-- reply Y

-- ask Let us now turn to "UUUCAGCAAUAUUACGGGGG"
-- reply Y

-- ask Let us now turn to "CCCAAGCAAUAUUACGAUAU"
-- reply N

-- ask Let us now turn to "CCUAAGCAAUAUUACGAAAA"
-- reply N

-- ask Let us now turn to "CUAAAGCAAUAUUACGGAUU"
-- reply N

-- ask Let us now turn to "CGGGAGCAAUAUUACGCACG"
-- reply Y

-- ask Let us now turn to "UCAAAGCAAUAUUACGCUUU"
-- reply N

-- ask Let us now turn to "CUAAAGCAAUAUUACGAGAG"
-- reply Y

-- ask Let us now turn to "CGAAAGCAAUAUUACGAGAA"
-- reply Y

-- ask Let us now turn to "GUCCAGCAAUAUUACGUACU"
-- reply Y

-- ask Let us now turn to "CAUUAGCAAUAUUACGUGUA"
-- reply Y

-- ask Let us now turn to "AAAUAGCAAUAUUACGUUAG"
-- reply N

-- ask Let us now turn to "CUGAAGCAAUAUUACGGCUG"
-- reply Y

-- ask Let us now turn to "ACUUAGCAAUAUUACGAAGU"
-- reply N

-- ask Let us now turn to "AGGUAGCAAUAUUACGAUGA"
-- reply Y

-- ask Let us now turn to "UAUAAGCAAUAUUACGGCAA"
-- reply Y

-- ask Let us now turn to "AGCUAGCAAUAUUACGGACC"
-- reply Y

-- ask Let us now turn to "UGACAGCAAUAUUACGCUAU"
-- reply N

-- ask Let us now turn to "UGGCAGCAAUAUUACGCGUU"
-- reply Y

Reference source: the supplement of paper PMC7877785
